Reference source: patent US20250270301A1

Relative KD (to VH0VK0) reference
# Study system: T1, full length recombinant human 2N4R tau (human, UniProt P10636 1-758)
# T1 construct: bought from rPeptide; pHrodo Red maleimide-labelled where it stands in uptake assays; also called tau1-441; full length tau
# T1 sequence (P10636 other isoform, or with tags, fused parts or gaps limits assumed): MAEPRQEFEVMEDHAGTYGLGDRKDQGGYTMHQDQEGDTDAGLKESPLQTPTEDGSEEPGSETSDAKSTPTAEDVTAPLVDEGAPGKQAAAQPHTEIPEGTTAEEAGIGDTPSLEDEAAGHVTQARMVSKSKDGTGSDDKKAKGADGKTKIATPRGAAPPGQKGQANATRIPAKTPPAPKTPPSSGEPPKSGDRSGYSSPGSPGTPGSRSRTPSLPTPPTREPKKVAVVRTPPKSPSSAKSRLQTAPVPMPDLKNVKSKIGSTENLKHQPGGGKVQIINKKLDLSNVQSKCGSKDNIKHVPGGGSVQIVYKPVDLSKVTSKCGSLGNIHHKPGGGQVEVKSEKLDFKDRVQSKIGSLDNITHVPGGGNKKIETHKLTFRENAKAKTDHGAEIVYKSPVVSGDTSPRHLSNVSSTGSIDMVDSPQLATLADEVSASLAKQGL
# Test summary: SPR SCK, IgG on Protein A, tau in flow
Number only, no unit.

Return Relative KD (to VH0VK0) for the following binder: #44 VH5VK2 humanised hIgG1 (antibody, V domains shown, also called VH5Vκ2) VH: QVQLQESGPGLVKPSETLSLTCTVSGIDLSSYAMAWVRQAPGKGLEWIGCIDRRGGTFYASWVKGRFTISRDNSKNTLDLQMTSLTAEDTATYYCARDSGAFDPWGQGTLVTVSS VL: QIVMTQSPSSLSASVGDRVTITCQASQSVYDNYLAWYQQKPGQPPKLLIHAASNLASGVPSRFKGSGSGTEFTLTISSLQPDDFATYYCLGEFSCTTTDCNVFGGGTKVEIK
3.29

Look up and report measured Relative KD (to VH0VK0) for this entry: #44 VH3VK2 humanised hIgG1 (antibody, V domains shown, also called VH3Vκ2) VH: QVQLQESGPGLVKPSETLSLTCTVSGIDLSSYAMAWVRQAPGKGLEWIGCIDRRGGTFYASWVKGRFTISKTSTTVDLQMTSLTAEDTATYFCARDSGAFDPWGQGTLVTVSS VL: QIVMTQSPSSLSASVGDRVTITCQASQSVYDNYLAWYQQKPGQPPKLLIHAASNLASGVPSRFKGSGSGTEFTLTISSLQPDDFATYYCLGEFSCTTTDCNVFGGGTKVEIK
1.99

---
Please report Relative KD (to VH0VK0) for the following binder: #44 VH1VK3 humanised hIgG1 (antibody, V domains shown, also called VH1Vκ3) VH: QSVQESGGGLVKPSETLSLTCTVSGIDLSSYAMAWVRQAPGKGLEWIGCIDRRGGTFYASWVKGRFTISKTSTTVDLKMTSLTAEDTATYFCARDSGAFDPWGQGTLVTVSS VL: DIQMTQSPSSLSASVGDRVTITCQASQSVYDNYLAWYQQKPGQPPKLLIHAASNLASGVPSRFKGSGSGTEFTLTISSLQPDDFATYYCLGEFSCTTTDCNVFGGGTKVEIK
1.31
